# TEST: recombinant UMI read abundance after kanamycin selection (control-corrected) (log10(CPM+1)); higher = more efficient recombination; extreme values may be limits of the assay; sequences stand for … in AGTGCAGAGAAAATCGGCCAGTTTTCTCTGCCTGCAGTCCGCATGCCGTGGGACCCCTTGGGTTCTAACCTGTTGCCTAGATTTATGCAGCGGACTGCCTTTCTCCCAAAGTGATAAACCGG…AGGTTGGTTTCACT; site = the 11-nt donor;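 note: IS621 bridge recombinase in Escherichia coli cells against a fixed T5 target plasmid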
READOUT_KIND: recombinant UMI read abundance (log10)

| QUERY_SEQUENCE | ASSAY_RESULT |
| --- | --- |
| CCACATTCATGGACCGGTTTTCCCGGTAATCCGTATTTGAT (site CCACATTCTAT) | 0 |
| TAGGAATCATGGACCGGTTTTCCCGGTAATCCGTATTTGAG (site TAGGAATCTCT) | 3.1 |
| GTTGATCCATGGACCGGTTTTCCCGGTAATCCGTATTTGGT (site GTTGATCCTAC) | 0.00442 |
| TAGAATACATGGACCGGTTTTCCCGGTAATCCGTATTTGTA (site TAGAATACTTG) | 0.697 |
| GCTAATGCATGGACCGGTTTTCCCGGTAATCCGTATTTGCC (site GCTATTGCTGG) | 0 |
